These data points were gathered from patent US20250282768A1.

System: p-IKKa levels in L363 (NIK translocated multiple myeloma) cells
Method: Assay 2: Effect of compounds on p-IKKa levels in L363 (NIK translocated multiple myeloma) cells
Format: cell-based
Test settings: Homo sapiens, L-363, 6 h, read-out: Assay 2 IC50 (nM), p-IKKa (Ser 176/180) in BAFF stimulated L363 cells with MG132, 6 h; average if tested more than once
Quantity kind: IC50

[2H]c1cc(-c2cccc(-c3cc([C@]4(O)CCN(C)C4=O)on3)n2)nc(Nc2ccn(C)n2)n1 [Example 209] :: < 50 nM
CN1CC[C@@](O)(c2cc(-c3cccc(-c4ccnc(NCC5(O)CC5)n4)n3)no2)C1=O [Example 466] :: > 500 nM
Cc1cc(-c2cc([C@]3(O)CCN(C)C3=O)on2)nc(-c2ccnc(Nc3cnn(C)c3)n2)c1 [Example 99] :: < 50 nM
CN1CC[C@@](O)(c2cn(-c3cccc(-c4ccnc(Nc5cnn(C)c5Cl)n4)n3)cn2)C1=O (single isomer, unassigned) [Example 107] :: > 500 nM
CN1CC[C@@](O)(c2cc(-c3cccc(-c4ccnc(NC5CCN(S(C)(=O)=O)CC5)n4)n3)no2)C1=O [Example 476] :: 50 to 500 nM

Query: Could you tell me which IC50 is on file for CN1CC[C@@](O)(c2cc(-c3cccc(-c4ccnc(Nc5cn(CCF)cn5)n4)n3)no2)C1=O [Example 399] ?
Result: < 50 nM

Query: Could you tell me which IC50 is on file for COCc1ccnc(Nc2nccc(-c3cccc(-c4cc([C@]5(O)CCN(C)C5=O)on4)n3)n2)c1 [Example 260] ?
Result: < 50 nM

Query: Could you tell me which IC50 is on file for CC1CCCCC1Nc1nccc(-c2cccc(-c3cc([C@]4(O)CCN(C)C4=O)on3)n2)n1 (mixture of isomers) [Example 341] ?
Result: 50 to 500 nM
